Test system: SL ERα
Construct: gene ESR1; full-length ESR1 ORF (1788 bp, about 595 aa), codon-optimised, pcDNA3.1+, HEK293; residues S53, S76, T496, T585
Test: 3xERE luciferase reporter activation, HEK293
Assay type: cell-based, Panthera uncia
Conditions: agonist; 24 h, 37 °C; normalised to β-gal; corrected for constitutive activity; read-out: EC50
readout: pEC50
Numbers only, as −log10 of the molar value.

Request: GET /values?readout=pEC50&item= C[C@]12CC[C@@H]3c4ccc(O)cc4CC[C@H]3[C@@H]1CC[C@@H]2O [E2, 17β-estradiol]
Response: 11.01

Data provenance is paper PMC12448638.
